Hey, just so you know, these numbers are from the supplement of paper PMC9170038.

Hi there, I'd appreciate the recorded apparent KD of MS2 coat protein for every entry that follows.
Tested on: MS2 coat protein
Assay: apparent KD of MS2 coat protein; designed switch direction (-1 OFF switch, 1 ON switch): -1; higher = weaker reporter binding
Details: input ligand: FMN 200 uM
Express your answer in nM, writing the number without its unit.

Lookup: apparent KD of MS2 coat protein / MS2 coat protein / ACCUAACAUGAGGAUCACCCAUGUGAGGAUAUGUACAUCGGCUCGCGAAAGUGACCGAACAGAAGGUACAUGGU [EX1 A.26] (Eterna round: R97, puzzle: Exclusion 1) 17.8

Lookup: apparent KD of MS2 coat protein / MS2 coat protein / UGUAGUUCAGGAUAUGAUGUUAAAUACAUGAGGAUCACCCAUGUAGAUCCUGAAUUUACAUCAGAAGGGAAUAUUU [JL-ex5-4.56 Brourd mod] (Eterna round: R97, puzzle: Exclusion 5) 22.8

Lookup: apparent KD of MS2 coat protein / MS2 coat protein / GAUUAACAUGAGGAUCACCCAUGUGAGGAUAUUGACUUGCUCACUUUCCCAUUAGAGUCGAGAAGGCGCAUCUG [1986#19] (Eterna round: R97, puzzle: Exclusion 1) 34.9

Lookup: apparent KD of MS2 coat protein / MS2 coat protein / AAAUUGUGAGGAUAUCCAAUAUAUGACAUGAGGAUCACCCAUGUUUCCACUCGUACCUCCGGAGAAGGCACUGCAA [Ex5 #39] (Eterna round: R97, puzzle: Exclusion 5) 22.3

Lookup: apparent KD of MS2 coat protein / MS2 coat protein / CUUUAGUGAGGAUAUCGGUAGUAAUACAAUAGUAUUACUACUGAGAAGGCACAUGAGGAUCACCCAUGUUCCUC [Mat - Exclusion 4 - Mod of Omei - D82] (Eterna round: R96, puzzle: Exclusion 4) 259

---

Tested on: MS2 coat protein
Assay: apparent KD of MS2 coat protein; designed switch direction (-1 OFF switch, 1 ON switch): -1; higher = weaker reporter binding
Conditions: input ligand: microRNA oligo, concentration not stated
quantity: apparent KD of MS2 coat protein
Number first, unit second.

For the sequence CAGCGACAUGAGGAUCACCCAUGUGGCUUCGUUCCCGCUGGCAAGGAUAUCCAGUCUUCGUGAGAGGAGAAGGUGCAAAAUAAG [Atveso] (Eterna round: R96, puzzle: Exclusion NG 3) , what apparent KD of MS2 coat protein is on record? 0.0317 µM

For the sequence UCUCGAAGGCAAGGAUAUCCUACAUUGUUCUGGCCCGGGCAUGCUACAUGAGGAUCACCCAUGUGGGAGAAGGUGCGCCACUGC [Design 28] (Eterna round: R96, puzzle: Exclusion NG 2) , what apparent KD of MS2 coat protein is on record? 0.0471 µM

For the sequence UUAUUAUAUGUAGGAUAUGCAUAUUAUUAUUAUGCAGAAGGACAUGAGGAUCACCCAUGUAUGUUAUUAUUAUAUAUUAUAUAU [Title] (Eterna round: R96, puzzle: Exclusion NG 1) , what apparent KD of MS2 coat protein is on record? 0.0207 µM

---

Hi there, I'd appreciate the recorded apparent KD of MS2 coat protein for every entry that follows.
System: MS2 coat protein
Assay: apparent KD of MS2 coat protein; designed switch direction (-1 OFF switch, 1 ON switch): -1; higher = weaker reporter binding
Details: input ligand: none

For the sequence GCUUCGGCAGGAUAUACAAGCUUCGGCUGAAAAGUUGAAGUACAUGAGGAUCACCCAUGUAGAAGGGUUGAAGU [-25.7, -24.2 kcal, A 32% 3 bis, 3 bis] (Eterna round: R97, puzzle: Exclusion 2) , what apparent KD of MS2 coat protein is on record? 60.1 nM

For the sequence CCUCUACAUGAGGAUCACCCAUGUGAGGAUAUCAAAGCCAGAACGGAUCUCUGGCCCAUGAGAAGGUGCAUGGA [EX1 A.2] (Eterna round: R97, puzzle: Exclusion 1) , what apparent KD of MS2 coat protein is on record? 22.3 nM

For the sequence AAAAUAAAGAUGCCUUAAAACAUGAGGAUCACCCAUGUGAGUAAGGAUAUCGGAACCAAUCGCGACGAGAAGGUACUCGCGUGU [Ceestemaat] (Eterna round: R96, puzzle: Exclusion NG 3) , what apparent KD of MS2 coat protein is on record? 14.4 nM

For the sequence AGCUAGGCAGGAUAUACAUGAGGAUCACCCAUGUAAAUUUUUCGUUUAACUUGAAUGUGUAGAAGGGCCAUAAA [Ex3 #51] (Eterna round: R97, puzzle: Exclusion 3) , what apparent KD of MS2 coat protein is on record? 22.4 nM

For the sequence ACUUACUGAGGAUAUACAUAGAUAAACAUGAGGAUCACCCAUGUUCCUAUAAGUAUAUAUGUAGAAGGCAGAAGAA [JR_Ex5_Sub074] (Eterna round: R97, puzzle: Exclusion 5) , what apparent KD of MS2 coat protein is on record? 14.7 nM

For the sequence AGUACAUGAGGAUCACCCAUGUCAGUUAUCAAUGGCACGCCUAAGGAUAUUGAGCGUCAAAGGCUCAAGAAGGUAGCUUUAUGC [Eternabot solution 12] (Eterna round: R96, puzzle: Exclusion NG 3) , what apparent KD of MS2 coat protein is on record? 25.6 nM

For the sequence GUGUUGUCAGGAUAUCUUACAUAACAAUCGUUGUUACCAUUGGAGAAGGGACAUGAGGAUCACCCAUGUUAACC [tap-tap-tappy46] (Eterna round: R97, puzzle: Exclusion 4) , what apparent KD of MS2 coat protein is on record? 19.6 nM

For the sequence GCAGCAUAGAUGAAAAUCUGAUACAUGAGGAUCACCCAUGUACAGGAUAUGGUCUGGAUUACAGGCCAGAAGGGUACAAGCUGC [Eli exng3 - 012] (Eterna round: R96, puzzle: Exclusion NG 3) , what apparent KD of MS2 coat protein is on record? 12.1 nM

For the sequence AACCUACAUGAGGAUCACCCAUGUGAGGAUAUAUUGUUAUUUAUAAUAUUUUUUAGUGGUAGAAGGCGCGUGAU [JR_Exc1_Sub019] (Eterna round: R97, puzzle: Exclusion 1) , what apparent KD of MS2 coat protein is on record? 18.5 nM

For the sequence UCCUUGUUGGAGGAUAUGCAUAGCAUCACGCCUGUAGAAGGCCAAACAUGAGGAUCACCCAUGUGCAUGGGAUG [Eternabot (L1) Solution 77] (Eterna round: R97, puzzle: Exclusion 6) , what apparent KD of MS2 coat protein is on record? 216 nM

For the sequence GGCAGUCGAGGAUAUACAAUCGUGCUUCGGCACGUAAGAUCACAUGAGGAUCACCCAUGUAGAAGGCGACUGCC [E2/1-A1] (Eterna round: R97, puzzle: Exclusion 2) , what apparent KD of MS2 coat protein is on record? 53.2 nM

For the sequence AGGUCAGAAGGAUAUACAUGAGGAUCACCCAUGUGGGAUACAACGAGCCGUUGUUCAGGUAGAAGGUCUAAAAU [Eternabot (Original) Solution 33] (Eterna round: R97, puzzle: Exclusion 3) , what apparent KD of MS2 coat protein is on record? 77.3 nM

For the sequence CCUCAGAUGUAGGAUAUCGCCCAGACAUUGCGGCGAGAAGGACAAACAUGAGGAUCACCCAUGUUAGUUUAGCA [Eternabot (L2) Solution 92] (Eterna round: R97, puzzle: Exclusion 6) , what apparent KD of MS2 coat protein is on record? 32.3 nM

For the sequence AAAGUCCUAGGAGGAUAUCACCUGCCUAGCACAUGAGAAGGCCUAGGAGACAUGAGGAUCACCCAUGUGUCCUUAGUCGAAAAU [Ensobedi] (Eterna round: R96, puzzle: Exclusion NG 1) , what apparent KD of MS2 coat protein is on record? 13.2 nM

For the sequence GUACUGAAGCUUUGCUUUAAUCGUACAUGAGGAUCACCCAUGUAGGAUAUGGUAGGCUUUGCUUACCAGAAGGACAGAGUGAUC [JL EXNG3 1.24] (Eterna round: R96, puzzle: Exclusion NG 3) , what apparent KD of MS2 coat protein is on record? 136 nM

For the sequence GAAGAUCUGCAGGAUAUGAGACUGAAACAGUUCUCAGAAGGGCGGACAUGAGGAUCACCCAUGUAAGACUGCAA [Eternabot (Original) Solution 4] (Eterna round: R97, puzzle: Exclusion 6) , what apparent KD of MS2 coat protein is on record? 78.8 nM

For the sequence UGAUUGUUUACCAGGUUAUACAUGAGGAUCACCCAUGUAGAUCCUACGUGCGCGUUAUACCGCUCGUCUUAUUCCCA [Sensor-V1 #77] (Eterna round: R97, puzzle: Sensor, turn-off variant 1) , what apparent KD of MS2 coat protein is on record? 19.8 nM

For the sequence ACAUGAGGAUCACCCAUGUGAACAUGAUGGCUGAUGUAGAGCUAGGAUAUGAGUGAAUAUCUAUCUCAGAAGGAGCUUGACUGG [Deportation 47 - Jieux - Exclusion NG 3] (Eterna round: R96, puzzle: Exclusion NG 3) , what apparent KD of MS2 coat protein is on record? 23.2 nM
